# Lookup of reported IC50 keyed by entry
- System: MRC-5 (lung fibroblast) cells
- test_protocol: Cell Titer Glo cell viability assay, MRC-5 non-cancerous control
- Type: cell-based
- assay_context: Homo sapiens, MRC5, MRC-5 non-cancerous fibroblasts, 48 h, 25-300 µM, triplicate, means
experimental_readout: IC50 (µM)

{"compound_string": "c1ccc(Oc2ccccc2-c2nnc(-c3ccccc3)o2)cc1", "test_system": "MRC-5 (lung fibroblast) cells", "value_observed": 74.5}
{"compound_string": "O=C(N/N=C/c1ccccc1Oc1ccccc1)c1cccnc1", "test_system": "MRC-5 (lung fibroblast) cells", "value_observed": 43.5}
{"compound_string": "Cc1nnsc1C(=O)N/N=C/c1ccccc1Oc1ccccc1", "test_system": "MRC-5 (lung fibroblast) cells", "value_observed": 87}
{"compound_string": "N#Cc1ccc(Oc2ccccc2-c2nnc(-c3ccco3)o2)cc1", "test_system": "MRC-5 (lung fibroblast) cells", "value_observed": 23.1}
{"compound_string": "Clc1ccc(Oc2ccccc2-c2nnc(-c3ccccc3)o2)cc1", "test_system": "MRC-5 (lung fibroblast) cells", "value_observed": 58.3}
{"compound_string": "O=C(N/N=C/c1ccccc1Oc1ccc(Cl)cc1)c1ccc(Cl)cc1", "test_system": "MRC-5 (lung fibroblast) cells", "value_observed": 14.6}

---

- Tested on: A549 (lung carcinoma) cells
- test_protocol: Cell Titer Glo cell viability assay, A549
- Type: cell-based
- assay_context: Homo sapiens, A549, 48 h, 25-300 µM, triplicate, means
pIC50: −log10 of the molar value.
experimental_readout: pIC50

{"compound": "O=C(N/N=C/c1ccccc1Oc1ccccc1)c1cccnc1 [1c]", "experimental_readout": "pIC50", "value_observed": 3.68}
{"compound": "Clc1ccc(Oc2ccccc2-c2nnc(-c3cccnc3)o2)cc1 [2m]", "experimental_readout": "pIC50", "value_observed": 3.86}
{"compound": "N#Cc1ccc(Oc2ccccc2/C=N/NC(=O)c2ccccc2)cc1 [1f]", "experimental_readout": "pIC50", "value_observed": 4.43}
{"compound": "O=C(N/N=C/c1ccccc1Oc1ccc(Cl)cc1)c1ccc(Cl)cc1 [1l]", "experimental_readout": "pIC50", "value_observed": 4.40}
{"compound": "N#Cc1ccc(Oc2ccccc2-c2nnc(-c3ccco3)o2)cc1 [2i]", "experimental_readout": "pIC50", "value_observed": 4.14}
{"compound": "O=C(N/N=C/c1ccccc1Oc1ccccc1)c1ccco1 [1d]", "experimental_readout": "pIC50", "value_observed": 4.30}
{"compound": "Cc1nnsc1C(=O)N/N=C/c1ccccc1Oc1ccc(Cl)cc1 [1o]", "experimental_readout": "pIC50", "value_observed": 4.05}
{"compound": "Clc1ccc(Oc2ccccc2-c2nnc(-c3ccccc3)o2)cc1 [2k]", "experimental_readout": "pIC50", "value_observed": 4.05}
{"compound": "Cc1nnsc1C(=O)N/N=C/c1ccccc1Oc1ccccc1 [1e]", "experimental_readout": "pIC50", "value_observed": 4.87}
{"compound": "Clc1ccc(Oc2ccccc2-c2nnc(-c3ccc(Cl)cc3)o2)cc1 [2l]", "experimental_readout": "pIC50", "value_observed": 4.44}
{"compound": "N#Cc1ccc(Oc2ccccc2-c2nnc(-c3ccccc3)o2)cc1 [2f]", "experimental_readout": "pIC50", "value_observed": 4.34}
{"compound": "Clc1ccc(-c2nnc(-c3ccccc3Oc3ccccc3)o2)cc1 [2b]", "experimental_readout": "pIC50", "value_observed": 3.82}
{"compound": "c1ccc(Oc2ccccc2-c2nnc(-c3cccnc3)o2)cc1 [2c]", "experimental_readout": "pIC50", "value_observed": 3.96}
{"compound": "N#Cc1ccc(Oc2ccccc2/C=N/NC(=O)c2ccc(Cl)cc2)cc1 [1g]", "experimental_readout": "pIC50", "value_observed": 4.50}
{"compound": "N#Cc1ccc(Oc2ccccc2-c2nnc(-c3cccnc3)o2)cc1 [2h]", "experimental_readout": "pIC50", "value_observed": 4.10}
{"compound": "N#Cc1ccc(Oc2ccccc2-c2nnc(-c3ccc(Cl)cc3)o2)cc1 [2g]", "experimental_readout": "pIC50", "value_observed": 4.19}
{"compound": "Clc1ccc(Oc2ccccc2-c2nnc(-c3ccco3)o2)cc1 [2n]", "experimental_readout": "pIC50", "value_observed": 4.54}
{"compound": "N#Cc1ccc(Oc2ccccc2/C=N/NC(=O)c2cccnc2)cc1 [1h]", "experimental_readout": "pIC50", "value_observed": 4.14}
{"compound": "N#Cc1ccc(Oc2ccccc2/C=N/NC(=O)c2ccco2)cc1 [1i]", "experimental_readout": "pIC50", "value_observed": 3.68}
{"compound": "O=C(N/N=C/c1ccccc1Oc1ccccc1)c1ccccc1 [1a]", "experimental_readout": "pIC50", "value_observed": 4.54}
{"compound": "Cc1nnsc1C(=O)N/N=C/c1ccccc1Oc1ccc(C#N)cc1 [1j]", "experimental_readout": "pIC50", "value_observed": 4.58}
{"compound": "O=C(N/N=C/c1ccccc1Oc1ccc(Cl)cc1)c1ccco1 [1n]", "experimental_readout": "pIC50", "value_observed": 4.40}
{"compound": "O=C(N/N=C/c1ccccc1Oc1ccc(Cl)cc1)c1cccnc1 [1m]", "experimental_readout": "pIC50", "value_observed": 4.14}
{"compound": "O=C(N/N=C/c1ccccc1Oc1ccc(Cl)cc1)c1ccccc1 [1k]", "experimental_readout": "pIC50", "value_observed": 3.91}
{"compound": "c1ccc(Oc2ccccc2-c2nnc(-c3ccco3)o2)cc1 [2d]", "experimental_readout": "pIC50", "value_observed": 3.99}
{"compound": "c1ccc(Oc2ccccc2-c2nnc(-c3ccccc3)o2)cc1 [2a]", "experimental_readout": "pIC50", "value_observed": 4.53}
{"compound": "O=C(N/N=C/c1ccccc1Oc1ccccc1)c1ccc(Cl)cc1 [1b]", "experimental_readout": "pIC50", "value_observed": 4.14}
